The origin of these recorded values is ChEMBL document CHEMBL1123779.

Test system: Plasmodium cynomolgi
Assay: Cures in Plasmodium cynomolgi infected Rhesus monkeys (Macaca mulatta) on 10.0 mg/kg/day after 7 days
Format: functional, organism-based

compound	Cures/no. of animals
CCCCOc1c(OC)cc(NC(C)CCCN)c2ncccc12 (stereo unspecified)	Toxic
CCCCOCCOc1c(OC)cc(NC(C)CCCN)c2nccc(C)c12 (stereo unspecified)	Toxic
COc1cc(NC(C)CCCN)c2nccc(C)c2c1OC1CCCC1 (stereo unspecified)	Toxic
CCCCCCCCCOc1c(OC)cc(NC(C)CCCN)c2nccc(C)c12 (stereo unspecified)	Toxic
CCCCCCCCOc1c(OC)cc(NC(C)CCCN)c2nccc(C)c12 (stereo unspecified)	Toxic
CCCCCCCOc1c(OC)cc(NC(C)CCCN)c2nccc(C)c12 (stereo unspecified)	Toxic

====

Entries annotated with measured Toxic deaths
System: Plasmodium berghei
Test: Suppressive blood schizonticidal antimalarial activity evaluated in the trophozoite-induced Plasmodium berghei infection in mice (Mus musculus) at a dose 640 mg/kg given as number of toxic deaths
Type: toxicity, organism-based
Parameters: dose 640 mg/kg
Details: in vivo
measured.endpoint: Toxic deaths

molecule	measured.endpoint	readout.value
CCCCCCCOc1c(OC)cc(NC(C)CCCN)c2nccc(C)c12 (stereo not drawn)	Toxic deaths	5
CCOc1c(OC)cc(NC(C)CCCN)c2ncccc12 (stereo not drawn)	Toxic deaths	5
CCCC(CC)Oc1c(OC)cc(NC(C)CCCN)c2ncc(C)cc12 (stereo not drawn)	Toxic deaths	5

====

System: Mus musculus
Assay: Suppressive blood schizonticidal antimalarial activity evaluated in the trophozoite-induced Plasmodium berghei infection in mice (Mus musculus) at a dose 5 mg/kg
Format: functional
Parameters: unit not given beside the values
So basically: is Delta MST under 8? Then fulfilled. Not under? Then not fulfilled.

molecule	assayed.system	label
COc1cc(NC(C)CCCN)c2nccc(C)c2c1OCCCCCCOc1ccccc1 (stereo not drawn)	Mus musculus	fulfilled
CCCCOCCOc1c(OC)cc(NC(C)CCCN)c2nccc(C)c12 (stereo not drawn)	Mus musculus	fulfilled
CCCCCCCCCOc1c(OC)cc(NC(C)CCCN)c2nccc(C)c12 (stereo not drawn)	Mus musculus	not fulfilled
CCCCCCCCOc1c(OC)cc(NC(C)CCCN)c2nccc(C)c12 (stereo not drawn)	Mus musculus	not fulfilled
CCCCCCOc1c(OC)cc(NC(C)CCCN)c2nc(C)cc(C)c12 (stereo not drawn)	Mus musculus	fulfilled
COc1cc(NC(C)CCCN)c2nccc(C)c2c1OC1CCCC1 (stereo not drawn)	Mus musculus	fulfilled

====

System: Plasmodium cynomolgi
Assay: Cures in Plasmodium cynomolgi infected Rhesus monkeys (Macaca mulatta) on 0.316 mg/kg/day after 7 days; cured 0 of 2
Format: functional
measured.endpoint: Cures/no. of animals

molecule	readout.value
COc1cc(NC(C)CCCN)c2ncc(C)cc2c1 (configuration not stated)	0
COc1cc(NC(C)CCCN)c2nccc(C)c2c1 (configuration not stated)	0
CCCCCCOc1c(OC)cc(NC(C)CCCN)c2ncc(C)cc12 (configuration not stated)	0
COc1cc(NC(C)CCCN)c2ncccc2c1 (configuration not stated)	0
CCCCCCOc1c(OC)cc(NC(C)CCCN)c2ncccc12 (configuration not stated)	0
CCCCCCCCCOc1c(OC)cc(NC(C)CCCN)c2nccc(C)c12 (configuration not stated)	0
COc1cc(NC(C)CCCN)c2nccc(C)c2c1OCCCCCCOc1ccccc1 (configuration not stated)	0

====

System: Mus musculus
Experiment: Suppressive blood schizonticidal antimalarial activity evaluated in the trophozoite-induced Plasmodium berghei infection in mice (Mus musculus) at a dose 2.5 mg/kg
Format: functional
Measured Delta MST by item

compound	assayed.system	Delta MST
COc1cc(NC(C)CCCN)c2nccc(C)c2c1OC1CCCC1 (stereo not given)	Mus musculus	6.1
CCCOc1c(OC)cc(NC(C)CCCN)c2nccc(C)c12 (stereo not given)	Mus musculus	6
CCCCCCCOc1c(OC)cc(NC(C)CCCN)c2nccc(C)c12 (stereo not given)	Mus musculus	7.9
CCCCCCCCCOc1c(OC)cc(NC(C)CCCN)c2nccc(C)c12 (stereo not given)	Mus musculus	7.9
CCCCOCCOc1c(OC)cc(NC(C)CCCN)c2nccc(C)c12 (stereo not given)	Mus musculus	3.3
CCCCCCCCOc1c(OC)cc(NC(C)CCCN)c2nccc(C)c12 (stereo not given)	Mus musculus	7.8
COCCCCCCOc1c(OC)cc(NC(C)CCCN)c2nccc(C)c12 (stereo not given)	Mus musculus	6.9
COc1cc(NC(C)CCCN)c2nccc(C)c2c1OCCCCOc1ccccc1 (stereo not given)	Mus musculus	8
C=CCCOc1c(OC)cc(NC(C)CCCN)c2nccc(C)c12 (stereo not given)	Mus musculus	7.5
COc1cc(NC(C)CCCN)c2nccc(C)c2c1OCC1CCCCC1 (stereo not given)	Mus musculus	9.2
